Target: Human ALDH3A1 (Homo sapiens, UniProt P30838)
Test: ALDH3A1 biochemical assay (benzaldehyde/NADP+, diaphorase-resazurin readout, 1,536-well)
Details: ALDH3A1 biochemical IC50
RECORDED_METRIC: IC50 (nM)
Write the number in nM without appending the unit.

Input line: Quick one: IC50 of O=C(NCc1cccc(C2CC2)c1)c1csc(N2CCN(c3cccc(C(F)(F)F)c3)CC2)n1 [Compound 13] ?
Output line: 1

----------
Below, each entry is listed alongside its reported CC-v2.
Target: Human ALDH3A1 (Homo sapiens, UniProt P30838)
Experiment: ALDH3A1 biochemical assay (benzaldehyde/NADP+, diaphorase-resazurin readout, 1,536-well)
Details: Table S2, in-house analogs; curve class
Give the figure only, with no unit attached.

Guide cases for CC-v2, answers given:
MOLECULAR_STRING: O=C(NCc1cccs1)c1csc(N2CCN(c3ccc(F)cc3)CC2)n1
CC-v2: -1.2
--
MOLECULAR_STRING: COc1cccc(N2CCN(c3nc(C(=O)NCc4cccc(C)c4)cs3)CC2)c1
CC-v2: -1.2
--
MOLECULAR_STRING: O=C(NCc1cccs1)c1csc(N2CCN(c3ccccc3F)CC2)n1
CC-v2: -1.2
--
MOLECULAR_STRING: Cc1cccc(CNC(=O)c2csc(N3CCN(c4ccccc4)CC3)n2)c1
CC-v2: -1.2

Input line: Report CC-v2 for `CN1CCOc2c(C(=O)NCCC(N)=O)cc(-c3ccc(CO)cc3)cc21` tested on Human ALDH3A1 (Homo sapiens, UniProt P30838).
Output line: -2.2

Input line: Report CC-v2 for `COC(=O)c1ccc2nc(CO[C@H]3CN(C4CCOCC4)C[C@H]3F)[nH]c2c1` tested on Human ALDH3A1 (Homo sapiens, UniProt P30838).
Output line: -1.4

Input line: Report CC-v2 for `COc1ccc(CN2C[C@@H](F)[C@@H](OCc3nc4cnccc4[nH]3)C2)cc1` tested on Human ALDH3A1 (Homo sapiens, UniProt P30838).
Output line: -2.4

Input line: Report CC-v2 for `COc1cccc(N2CCN(c3nc(C(=O)NCc4ccco4)cs3)CC2)c1` tested on Human ALDH3A1 (Homo sapiens, UniProt P30838).
Output line: -2.2

----------
Below, each entry is listed alongside its reported Cell_CC-v2.
Biological target: OE19 (3A1) (Homo sapiens)
Assay: Cellular ALDEFLUOR assay in OE19 cells (preferential ALDH3A1 expression)
Conditions: Table S4, cellular curve class
Give the figure only, with no unit attached.

Guide cases for Cell_CC-v2, answers given:
MOLECULAR_STRING: Cc1cccc(CNC(=O)c2csc(N3CCN(c4ccc(Br)cc4)CC3)n2)c1
Cell_CC-v2: -1.1

MOLECULAR_STRING: Cc1cccc(CNC(=O)c2csc(N3CCN(c4cc(Cl)c(Cl)c(Cl)c4)CC3)n2)c1
Cell_CC-v2: -1.2

MOLECULAR_STRING: Cc1cccc(CNC(=O)c2csc(N3CCN(c4cccc(C)c4)CC3)n2)c1
Cell_CC-v2: -1.3

Next compound, Cell_CC-v2 to be filled in.
Input line: Quick one: Cell_CC-v2 of `Cc1cccc(CNC(=O)c2csc(N3CCN(c4cccc(Br)c4)CC3)n2)c1` ?
Output line: -1.3

----------
Biological target: Human ALDH3A1 (Homo sapiens)
Test: ALDH3A1 biochemical assay (benzaldehyde/NADP+, diaphorase-resazurin readout, 1,536-well)
Conditions: Table S4, biochemical
Parameter threshold = -90. Response is yes (1) when Efficacy meets or exceeds it, else no (0).

Consider the worked cases shown below.
MOLECULAR_STRING: CCOC(=O)Cc1ccc(N2CCN(c3nc(C(=O)NCc4cccc(C)c4)cs3)CC2)cc1
CATEGORY: no (0)
--
MOLECULAR_STRING: Cc1cccc(CNC(=O)c2csc(N3CCN(c4ccc(Cl)c(Cl)c4)CC3)n2)c1
CATEGORY: yes (1)

Input line: Please tell me: is the compound `COc1cc(N2CCN(c3nc(C(=O)NCc4cccc(C)c4)cs3)CC2)cc(OC)c1OC` at or over -90 in terms of Efficacy?
Output line: yes (1)

Input line: Please tell me: is the compound `Cc1cccc(CNC(=O)c2csc(N3CCN(Cc4cccc(C)c4)CC3)n2)c1` at or over -90 in terms of Efficacy?
Output line: no (0)

Input line: Please tell me: is the compound `COc1ccc(N2CCN(c3nc(C(=O)NCc4cccc(C(F)(F)F)c4)cs3)CC2)cc1` at or over -90 in terms of Efficacy?
Output line: yes (1)

Input line: Please tell me: is the compound `Cc1cccc(CNC(=O)c2csc(N3CCN(c4cccc(OC(F)(F)F)c4)CC3)n2)c1` at or over -90 in terms of Efficacy?
Output line: no (0)

Input line: Please tell me: is the compound `Cc1cccc(CNC(=O)c2csc(N3CCN(c4cccc(F)c4)CC3)n2)c1` at or over -90 in terms of Efficacy?
Output line: no (0)

Input line: Please tell me: is the compound `Cc1cccc(CNC(=O)c2csc(N3CCN(c4ccccc4F)CC3)n2)c1` at or over -90 in terms of Efficacy?
Output line: no (0)

Input line: Please tell me: is the compound `Cc1cccc(CNC(=O)c2csc(N3CCN(c4cccc(Sc5ccc(C)cc5C)c4)CC3)n2)c1` at or over -90 in terms of Efficacy?
Output line: yes (1)

Input line: Please tell me: is the compound `Cc1cccc(CNC(=O)c2csc(N3CCN(c4cccc(OCc5ccccc5C)c4)CC3)n2)c1` at or over -90 in terms of Efficacy?
Output line: yes (1)

Input line: Please tell me: is the compound `Cc1cccc(CNC(=O)c2csc(N3CCN(c4ccc(N5CCOCC5)cc4)CC3)n2)c1` at or over -90 in terms of Efficacy?
Output line: yes (1)

Input line: Please tell me: is the compound `Cc1cccc(CNC(=O)c2csc(N3CCN(c4cccc(O)c4)CC3)n2)c1` at or over -90 in terms of Efficacy?
Output line: yes (1)

Input line: Please tell me: is the compound `Cc1cccc(CNC(=O)c2csc(N3CCN(c4ncccc4C(F)(F)F)CC3)n2)c1` at or over -90 in terms of Efficacy?
Output line: no (0)

Input line: Please tell me: is the compound `CCc1ccc(N2CCN(c3nc(C(=O)NCc4cccc(C)c4)cs3)CC2)cc1` at or over -90 in terms of Efficacy?
Output line: yes (1)

----------
Target: Human ALDH3A1 (Homo sapiens)
Test: ALDH3A1 biochemical assay (benzaldehyde/NADP+, diaphorase-resazurin readout, 1,536-well)
Settings: Table S5, biochemical
RECORDED_METRIC: Efficacy
Give the figure only, with no unit attached.

MOLECULE: O=C(NCc1cccc(OC(F)(F)F)c1)c1csc(N2CCN(c3cccc(C(F)(F)F)c3)CC2)n1
ASSAY_SYSTEM: Human ALDH3A1 (Homo sapiens)
Efficacy: -83.40

MOLECULE: Cc1cc(CNC(=O)c2csc(N3CCN(c4cccc(C(F)(F)F)c4)CC3)n2)ccc1-c1ccccc1
ASSAY_SYSTEM: Human ALDH3A1 (Homo sapiens)
Efficacy: -32.49

MOLECULE: O=C(NCc1ccc2c(c1)CNC2=O)c1csc(N2CCN(c3cccc(C(F)(F)F)c3)CC2)n1
ASSAY_SYSTEM: Human ALDH3A1 (Homo sapiens)
Efficacy: -53.79

MOLECULE: NC(=O)c1csc(N2CCN(c3cccc(C(F)(F)F)c3)CC2)n1
ASSAY_SYSTEM: Human ALDH3A1 (Homo sapiens)
Efficacy: -23.04

MOLECULE: O=C(NCc1ccc(-c2ccsc2)cc1)c1csc(N2CCN(c3cccc(C(F)(F)F)c3)CC2)n1
ASSAY_SYSTEM: Human ALDH3A1 (Homo sapiens)
Efficacy: -97.11

Next molecule, Efficacy to be filled in.
Input line: Report Efficacy for `O=C(NCc1ccc2ccccc2c1)c1csc(N2CCN(c3cccc(C(F)(F)F)c3)CC2)n1` tested on Human ALDH3A1 (Homo sapiens).
Output line: -92.05

----------
Target: OE19 (3A1) (Homo sapiens, UniProt P30838)
Sequence (P30838 1-453): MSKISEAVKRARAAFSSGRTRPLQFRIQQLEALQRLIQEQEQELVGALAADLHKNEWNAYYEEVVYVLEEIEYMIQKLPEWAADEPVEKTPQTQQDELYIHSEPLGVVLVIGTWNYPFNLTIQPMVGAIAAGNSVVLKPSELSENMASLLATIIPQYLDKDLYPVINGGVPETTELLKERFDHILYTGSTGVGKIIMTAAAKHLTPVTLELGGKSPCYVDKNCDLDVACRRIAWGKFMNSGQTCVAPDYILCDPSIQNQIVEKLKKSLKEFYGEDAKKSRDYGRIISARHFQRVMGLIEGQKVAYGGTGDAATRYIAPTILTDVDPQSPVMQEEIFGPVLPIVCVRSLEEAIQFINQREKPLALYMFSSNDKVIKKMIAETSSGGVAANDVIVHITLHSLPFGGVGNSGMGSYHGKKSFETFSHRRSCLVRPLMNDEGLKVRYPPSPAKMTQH
Assay: Cellular ALDEFLUOR assay in OE19 cells (preferential ALDH3A1 expression)
Conditions: Table S4, cellular curve class
RECORDED_METRIC: Cell_CC-v2
Give the figure only, with no unit attached.

Input line: Quick one: Cell_CC-v2 of `Cc1cccc(CNC(=O)c2csc(N3CCN(c4ccc(Cl)cn4)CC3)n2)c1` ?
Output line: -1.2

This collection of values is drawn from paper PMC13266984.
